Where do the numbers come from? From patent US9695155B2.

Plant response rating (0 to 100), Chickweed for assorted compounds
# Test system: chickweed
# measurement_protocol: Test C postemergence
# Assay type: in vivo, Stellaria media
# settings: 125 g ai/ha, postemergence
# Excerpt: […]
quantity_measured: Plant response rating (0 to 100), Chickweed

> print(dat)
                       compound.structure  value.observed
1  CCOc1cnn(-c2c(C#N)cccc2Oc2ncc(F)cn2)c1              60
2  CCOc1cn(-c2c(Br)cccc2Oc2ncc(Cl)cn2)nn1              50
3   FCc1cccc(Oc2ncc(Cl)cn2)c1-n1cc(Br)cn1              70
4  N#Cc1cccc(Oc2ncc(Cl)cn2)c1-n1cnc(Br)c1              50

* * *

# Tested on: morningglory
# measurement_protocol: Test A preemergence
# Type: in vivo, Ipomoea spp.
# settings: 500 g ai/ha, 0 to 100 scale, 0 no effect, 100 complete control, approx. 10 days
quantity_measured: Morningglory plant response rating

> print(dat)
                                   compound                   quantity.measured  value.observed
1  Clc1cnc(Oc2ccccc2-n2cnc(Br)n2)nc1 [Compound 46]  Morningglory plant response rating               0
2  N#Cc1cccc(Oc2ncc(Cl)cn2)c1-n1cnc(Br)c1 [Compound 74]  Morningglory plant response rating             100
3  N#Cc1cccc(Oc2ncc(F)cn2)c1-n1cc(Cl)cn1 [Compound 73]  Morningglory plant response rating             100
4  FC(F)(F)c1cnc(Oc2ccccc2-n2cc(Cl)cn2)nc1 [Compound 6]  Morningglory plant response rating              10
5  N#Cc1cccc(Oc2ncc(I)cn2)c1-n1cc(Br)cn1 [Compound 60]  Morningglory plant response rating               0

* * *

# Test system: barnyardgrass
# measurement_protocol: Test C postemergence
# Type: in vivo, Echinochloa crus-galli
# settings: Postemergence, 62 g ai/ha; scale 0 to 100 (0 no effect, 100 complete control)
quantity_measured: Plant response rating, Barnyardgrass

> print(dat)
                         compound.structure  value.observed
1    CCOc1cn(-c2c(Br)cccc2Oc2ncc(Cl)cn2)nn1               0
2    N#Cc1cccc(Oc2ncc(Cl)cn2)c1-n1cnc(Br)c1               5
3     N#Cc1cccc(Oc2ncc(F)cn2)c1-n1cc(Br)cn1               5
4    CCOc1cnn(-c2c(C#N)cccc2Oc2ncc(F)cn2)c1               5
5      Cc1cnc(Oc2cccc(C#N)c2-n2cc(I)cn2)nc1               0
6  FC(F)(F)c1cnn(-c2c(Cl)cccc2Oc2ncc(Cl)cn2)c1              10
7   CCOc1cnn(-c2c(C#N)cccc2Oc2ncc(Cl)cn2)c1               5
8  CCCOc1cnn(-c2c(C#N)cccc2Oc2ncc(Cl)cn2)c1               5
9     N#Cc1cccc(Oc2ncc(Br)cn2)c1-n1cc(I)cn1               5

* * *

# System: pigweed
# measurement_protocol: Test C postemergence
# Assay type: in vivo, Amaranthus retroflexus
# settings: Postemergence, 62 g ai/ha; scale 0 to 100 (0 no effect, 100 complete control)
# Description: […]
Plant response rating, Pigweed reference
quantity_measured: Plant response rating, Pigweed

> print(dat)
                         compound.structure               quantity.measured  value.observed
1      Cc1cnc(Oc2cccc(C#N)c2-n2cc(I)cn2)nc1  Plant response rating, Pigweed              55
2    N#Cc1cnn(-c2c(C#N)cccc2Oc2ncc(F)cn2)c1  Plant response rating, Pigweed              85
3     FCc1cccc(Oc2ncc(Cl)cn2)c1-n1cc(Br)cn1  Plant response rating, Pigweed              75
4  CCCOc1cnn(-c2c(C#N)cccc2Oc2ncc(Cl)cn2)c1  Plant response rating, Pigweed              55
5    CCOc1cnn(-c2c(C#N)cccc2Oc2ncc(F)cn2)c1  Plant response rating, Pigweed              35
6     N#Cc1cccc(Oc2ncc(Br)cn2)c1-n1cc(I)cn1  Plant response rating, Pigweed              85
